assay: CDH13 Derepression/Induction Secondary Assay for qHTS Assay for Epigenetic Modulators; settings: H358 cells, CDH13 mRNA qPCR, 72 h
Results filed as inconclusive are left out. The source made the active and inactive calls.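 How the source made its calls: active means raised CDH13 expression over DMSO controls, judged by fold change in triplicate runs, no set cutoff; inconclusive means doubtful CDH13 rise, criteria not stated; inactive means no rise, falls in expression ignored.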
Classes used: yes = active, no = inactive

> print(dat)
                                   compound  category
1                CN(C)C(=O)CSc1cccc2cccnc12        no
2           O=C(CSc1cccc2cccnc12)NCc1ccccc1        no
3  CC(C)C(=O)NC(c1ccco1)c1cc([N+](=O)[O-])c2cccnc2c1O (stereo not given)       yes
4                        CCN1CSC(=S)N(CC)C1        no
5                      O=Nc1ccc(O)c2ncccc12       yes
